target: Glucose transporter (Leishmania mexicana); assay: ST_JUDE_LEISH: Cytotoxicity at 2uM final concentration against transgenic Leishmania Mexicana promastigotes LmGT2 that are glucose transport deficient and complemented with the L. Mexicana glucose transporter 2. Activity is measured by DNA content using SYBR green in vitro; format: functional
outcome.measure: inhibition

Ask: Which inhibition value belongs to O=C(/C=C/C=C/c1ccc(Cl)c(Cl)c1)NCCCCCN1CCCC2CCCCC21 (configuration not stated) ?
Reply: 13.2%

Ask: Which inhibition value belongs to CC(=O)Nc1ccc(CN2CCC(CNC(=O)c3cc(-c4cccc(Cl)c4)cs3)C2)cc1 (configuration not stated) ?
Reply: 3.3%

Ask: Which inhibition value belongs to CC(C)C(=O)NC(Nc1ccc([N+](=O)[O-])cc1)C(Cl)(Cl)Cl (configuration not stated) ?
Reply: 1.48%

Ask: Which inhibition value belongs to O=C(NCCc1ccccc1)N(Cc1ccccc1-c1cccc(CNC2CCCC2)c1)C1CCN(Cc2ccccc2)CC1 ?
Reply: 6.22%

Ask: Which inhibition value belongs to Brc1ccsc1-c1nc(NCCC(c2ccccc2)c2ccccc2)no1 ?
Reply: 0.06%

Ask: Which inhibition value belongs to O=c1cc(NCCCNCc2cc(C(F)(F)F)ccc2F)[nH]c2ccccc12 ?
Reply: 3.1%

Ask: Which inhibition value belongs to COc1ccc2nccc([C@@H](O)CN3CCC(NC(=O)CCC(=O)c4cc(C(C)(C)C)ccc4OC)CC3)c2c1 ?
Reply: 1.95%

Ask: Which inhibition value belongs to CN(C)CCNCc1nc(-c2ccc3c(Nc4ccc(Oc5ccccc5)cc4)ccnc3c2)cs1 ?
Reply: 5.9%

Ask: Which inhibition value belongs to COc1ccc2ncc(F)c(CCN3CCC(NCc4ccc5c(c4)CCO5)CC3)c2n1 ?
Reply: 20.6%

Ask: Which inhibition value belongs to O=C(Cc1ccsc1)NCC(c1ccccc1Cl)c1c[nH]c2ccccc12 (configuration not stated) ?
Reply: 4.67%

Ask: Which inhibition value belongs to O=C(c1cccc(COc2ccc3c(c2)CCN(C2CCCC2)CC3)c1)N1CCN(c2ccncc2)CC1 ?
Reply: 7.88%

Ask: Which inhibition value belongs to CCn1c(-c2nonc2N)nc2c(-c3ccc(CO)o3)ncc(OCCCN)c21 ?
Reply: 5.17%

Numbers sourced from ChEMBL document CHEMBL3433997.
